Molecular target: wild-type KV11.1 (Homo sapiens, UniProt Q12809)
Sequence (Q12809 whole entry): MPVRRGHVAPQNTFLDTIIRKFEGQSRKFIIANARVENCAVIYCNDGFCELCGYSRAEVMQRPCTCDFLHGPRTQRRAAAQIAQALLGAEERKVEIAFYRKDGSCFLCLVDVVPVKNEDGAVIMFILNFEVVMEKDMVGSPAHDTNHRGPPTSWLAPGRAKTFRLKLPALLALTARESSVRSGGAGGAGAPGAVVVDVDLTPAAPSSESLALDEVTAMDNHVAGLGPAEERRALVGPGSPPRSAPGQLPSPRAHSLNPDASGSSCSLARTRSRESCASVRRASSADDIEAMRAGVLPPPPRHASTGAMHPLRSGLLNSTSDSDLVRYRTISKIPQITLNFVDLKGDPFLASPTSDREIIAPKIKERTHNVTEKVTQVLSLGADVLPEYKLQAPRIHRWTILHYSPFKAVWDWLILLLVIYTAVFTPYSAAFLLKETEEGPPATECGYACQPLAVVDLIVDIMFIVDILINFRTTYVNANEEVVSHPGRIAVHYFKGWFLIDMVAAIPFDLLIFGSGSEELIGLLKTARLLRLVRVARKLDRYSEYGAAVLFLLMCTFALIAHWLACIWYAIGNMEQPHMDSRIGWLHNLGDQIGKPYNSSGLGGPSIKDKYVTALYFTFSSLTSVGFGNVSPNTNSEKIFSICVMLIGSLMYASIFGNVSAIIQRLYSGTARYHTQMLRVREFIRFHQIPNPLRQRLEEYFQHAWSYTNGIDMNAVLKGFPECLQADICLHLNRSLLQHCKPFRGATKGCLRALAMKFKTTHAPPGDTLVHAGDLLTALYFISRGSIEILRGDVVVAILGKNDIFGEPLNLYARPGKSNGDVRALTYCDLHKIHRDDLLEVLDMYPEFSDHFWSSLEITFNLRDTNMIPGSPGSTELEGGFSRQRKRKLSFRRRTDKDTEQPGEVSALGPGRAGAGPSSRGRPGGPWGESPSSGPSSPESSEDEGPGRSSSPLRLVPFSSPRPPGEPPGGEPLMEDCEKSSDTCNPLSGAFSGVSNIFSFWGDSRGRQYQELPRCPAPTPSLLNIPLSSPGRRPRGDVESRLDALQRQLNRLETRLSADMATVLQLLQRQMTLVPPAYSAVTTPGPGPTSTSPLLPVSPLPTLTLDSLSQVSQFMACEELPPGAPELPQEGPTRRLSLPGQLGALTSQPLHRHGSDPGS
Assay: cell-based
quantityKind: EC50 (µM)

[[record]]
itemsmiles = "Cc1cc(C)c2c(c1)[C@@H](N(Cc1cc(C(F)(F)F)cc(C(F)(F)F)c1)c1nnn(C)n1)CCCN2C[C@H]1CC[C@H](C(=O)O)CC1"
recordedvalue = 8.2

